target: UniProtKB P05121; assay: biochemical; settings: 100 μM; read-out: Degree of inhibition in PAI chromogenic substrate assay
Sequence (P05121 24-402): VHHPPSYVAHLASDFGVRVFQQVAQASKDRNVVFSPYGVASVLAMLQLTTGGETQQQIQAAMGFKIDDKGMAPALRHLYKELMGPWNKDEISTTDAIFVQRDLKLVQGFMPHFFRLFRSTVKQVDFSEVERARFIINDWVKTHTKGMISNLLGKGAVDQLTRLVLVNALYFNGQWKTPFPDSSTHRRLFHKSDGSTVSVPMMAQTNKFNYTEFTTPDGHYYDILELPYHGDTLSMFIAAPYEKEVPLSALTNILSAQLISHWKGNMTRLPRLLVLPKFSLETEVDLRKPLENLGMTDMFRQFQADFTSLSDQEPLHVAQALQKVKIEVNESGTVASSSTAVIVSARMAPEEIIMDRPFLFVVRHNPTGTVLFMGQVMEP
MEASURED_QUANTITY: inhibition at 100 µM (%)

For orientation, consider the following solved cases.
CCCCCCOc1ccc(/C=c2\[nH]c(=O)/c(=C/c3ccc(OC)cc3)[nH]c2=O)cc1 : 80
CN(C)CCCOc1ccc(/C=c2\[nH]c(=O)/c(=C/c3ccccc3)[nH]c2=O)cc1 : 72
CN(C)CCCOc1ccc(/C=c2\[nH]c(=O)/c(=C/c3ccc(OCCCN(C)C)cc3)[nH]c2=O)cc1 : 9
CN(C)CCOc1ccc(/C=c2\[nH]c(=O)/c(=C/c3c(Cl)cccc3Cl)[nH]c2=O)cc1 : 63
COc1ccc(/C=c2\[nH]c(=O)/c(=C/c3ccc(OC(=O)CC(C)(C)C)cc3)[nH]c2=O)cc1 : 54

[I] CC(C)(C)CC(=O)Oc1ccc(/C=c2\[nH]c(=O)/c(=C/c3ccccc3)[nH]c2=O)cc1
[II] CN(C)CCOc1ccc(/C=c2\[nH]c(=O)/c(=C/c3ccccc3)[nH]c2=O)c(Cl)c1.Cl [Compound 1960, hydrochloride]
Of I and II , whose reported inhibition at 100 µM is the larger number? Record your answer as the label of the chosen record.
I
